Each entry below carries its recorded pIC50.
Test system: HBV DNA
Experiment: HBV DNA assay (real-time qPCR/TaqMan of extracellular HBV DNA, HepG2.2.15 cells)
Format: cell-based
Conditions: Hepatitis B virus, 144 h; Anti HBV DNA production activity in HepG2.2.15 cells, supernatant, six days after treatment
pIC50: −log10 of the molar value.
assay endpoint: pIC50

INSERT INTO assay_data (compound, quantitative_result) VALUES
  ('COc1cc(F)nc(N2CCc3nc(-c4ncc[nH]4)ncc3C2C)c1 (stereo not shown)', 8.24),
  ('CC1c2cnc(-c3cscn3)nc2CCN1c1cc(F)nc(N2CCN(S(C)(=O)=O)CC2)c1 (stereo not shown)', 7.69),
  ('COc1cc(F)nc(N2CCc3nc(-c4ncn[nH]4)ncc3C2C)c1 (stereo not shown)', 8.77),
  ('COc1cc(F)nc(N2CCc3nc(-c4cscn4)ncc3C2C)c1 (stereo not shown)', 8.06);
